target: UniProt:P61169; experiment: Concentration inhibiting specific binding of [3H]haloperidol to Dopamine receptor D2 from rat striatal brain.
Sequence (P61169 whole entry): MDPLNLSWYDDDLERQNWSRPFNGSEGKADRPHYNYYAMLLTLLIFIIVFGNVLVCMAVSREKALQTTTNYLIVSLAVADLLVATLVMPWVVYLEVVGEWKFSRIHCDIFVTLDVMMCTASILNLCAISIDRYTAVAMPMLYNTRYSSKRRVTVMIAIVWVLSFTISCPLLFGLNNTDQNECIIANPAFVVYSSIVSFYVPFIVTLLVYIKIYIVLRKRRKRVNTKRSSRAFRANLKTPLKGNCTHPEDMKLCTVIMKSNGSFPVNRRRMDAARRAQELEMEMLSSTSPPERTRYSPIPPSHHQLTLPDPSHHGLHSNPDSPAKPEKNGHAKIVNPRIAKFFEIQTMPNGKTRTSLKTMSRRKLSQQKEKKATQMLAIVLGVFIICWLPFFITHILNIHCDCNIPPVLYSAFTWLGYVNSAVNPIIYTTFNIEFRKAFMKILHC
Each item that follows carries a reported pIC50.
Schema: pIC50 number; meaning minus log10 of the concentration expressed in molar units.

Molecule | pIC50
CCCN1CCO[C@@H]2c3cc(O)ccc3OC[C@H]21 (racemic) | 6.05

API: the following record is the query input.
State its pIC50: CCCN1CCO[C@@H]2c3cc(O)ccc3OC[C@H]21
6.39

The reported numbers originate from ChEMBL document CHEMBL1124965.
